For each entry below, report its AUC reduction (%) TPA value.
test system: tetradecanoylphorbol 13-acetate (TPA) induced ear edema; assay: TPA-induced ear edema model; type: in vivo, mice; conditions: 10 μg one single s.c. injection 20 minutes before TPA; compared to PBS control
I only need the number, in %, no unit after it.

Lookup: Reported AUC reduction (%) TPA, substance G*G*G*TCGTCTG*C*G*G (GGGTCGTCTGCGG; DNA, linkages s3 o6 s3 (s phosphorothioate, o phosphodiester), methylation of C not given here) [IDX9053] : ____
Found: −39.0

Lookup: Reported AUC reduction (%) TPA, substance T*C*C*GATCGTCC*A*G*G (TCCGATCGTCCAGG; DNA, linkages s3 o7 s3 (s phosphorothioate, o phosphodiester), methylation of C not given here) [IDX9078] : ____
Found: −41.3

Lookup: Reported AUC reduction (%) TPA, substance T*C*C*CAAGATCGTCC*A*G*G (phosphorothioate linkages, as printed in the source, key not given here) [IDX9076, oligonucleotide; * = phosphorothioate modification] : ____
Found: −5.1

Lookup: Reported AUC reduction (%) TPA, substance T*C*G*TCGTTCGGCCGATCG*T*C*C (TCGTCGTTCGGCCGATCGTCC; DNA, linkages s3 o14 s3 (s phosphorothioate, o phosphodiester), methylation of C not given here) [IDX9038, oligonucleotide; * = phosphorothioate modification] : ____
Found: −47.4

* * *

tested on: tetradecanoylphorbol 13-acetate (TPA) induced ear edema; assay: TPA-induced ear edema model; assay type: in vivo, mice; conditions: 10 μg subcutaneously 20 minutes before induction of edema
For each entry below, report its Peak reduction (%) TPA value.
I only need the number, in %, no unit after it.

Lookup: Reported Peak reduction (%) TPA, substance T*C*C*GATCGTCC*A*G*G (TCCGATCGTCCAGG; DNA, linkages s3 o7 s3 (s phosphorothioate, o phosphodiester), methylation of C not given here) [IDX9078] : ____
Found: −26.1

Lookup: Reported Peak reduction (%) TPA, substance T*C*G*TCGTTCGGCCGATCG*T*C*C (TCGTCGTTCGGCCGATCGTCC; DNA, linkages s3 o14 s3 (s phosphorothioate, o phosphodiester), methylation of C not given here) [IDX9038, oligonucleotide; * = phosphorothioate modification] : ____
Found: −37.9

Lookup: Reported Peak reduction (%) TPA, substance T*G*C*CATTCGTCGTTCTCGTC*G*T*T (phosphorothioate linkages, as printed in the source, key not given here) [IDX9024, oligonucleotide; * = phosphorothioate modification] : ____
Found: −30.9

Lookup: Reported Peak reduction (%) TPA, substance G*G*G*GCGTCTGCC*G*G*G (GGGGCGTCTGCCGGG; DNA, linkages s3 o8 s3 (s phosphorothioate, o phosphodiester), methylation of C not given here) [IDX9051, oligonucleotide; * = phosphorothioate modification] : ____
Found: −29.5

Lookup: Reported Peak reduction (%) TPA, substance T*C*C*CAAGATCGTCC*A*G*G (phosphorothioate linkages, as printed in the source, key not given here) [IDX9076, oligonucleotide; * = phosphorothioate modification] : ____
Found: −2.6

Lookup: Reported Peak reduction (%) TPA, substance T*C*C*ATGGTCAGGGTCCCGG*G*G*G (TCCATGGTCAGGGTCCCGGGGG; DNA, linkages s3 o15 s3 (s phosphorothioate, o phosphodiester), methylation of C not given here) [IDX9064, oligonucleotide; * = phosphorothioate modification] : ____
Found: −41.7

Lookup: Reported Peak reduction (%) TPA, substance T*G*C*CATTCGTCGATTTCGTC*G*A*T (TGCCATTCGTCGATTTCGTCGAT; DNA, linkages s3 o16 s3 (s phosphorothioate, o phosphodiester), methylation of C not given here) [IDX9025, oligonucleotide; * = phosphorothioate modification] : ____
Found: −23.5

Lookup: Reported Peak reduction (%) TPA, substance G*G*G*TCGTCTG*C*G*G (GGGTCGTCTGCGG; DNA, linkages s3 o6 s3 (s phosphorothioate, o phosphodiester), methylation of C not given here) [IDX9053] : ____
Found: −30.5

* * *

For each entry below, report its AUC reduction (%) TPA value.
test system: tetradecanoylphorbol 13-acetate (TPA) induced ear edema; test: TPA-induced ear edema model; assay type: in vivo, mice; conditions: 10 μg one single s.c. injection 20 minutes before TPA; compared to PBS control
I only need the number, in %, no unit after it.

Lookup: Reported AUC reduction (%) TPA, substance T*C*G*TCTGCTTAGTTCGTTA*G*T*T (TCGTCTGCTTAGTTCGTTAGTT; DNA, linkages s3 o15 s3 (s phosphorothioate, o phosphodiester), methylation of C not given here) [IDX9087] : ____
Found: −40.2

Lookup: Reported AUC reduction (%) TPA, substance G*G*G*GCGTCTGCC*G*G*G (GGGGCGTCTGCCGGG; DNA, linkages s3 o8 s3 (s phosphorothioate, o phosphodiester), methylation of C not given here) [IDX9051, oligonucleotide; * = phosphorothioate modification] : ____
Found: −54.0

Lookup: Reported AUC reduction (%) TPA, substance T*G*C*CATTCGTCGATTTCGTC*G*A*T (TGCCATTCGTCGATTTCGTCGAT; DNA, linkages s3 o16 s3 (s phosphorothioate, o phosphodiester), methylation of C not given here) [IDX9025, oligonucleotide; * = phosphorothioate modification] : ____
Found: −57.8

* * *

For each entry below, report its Peak reduction (%) AA value.
Test system: arachidonic acid (AA) induced ear edema
Assay: Arachidonic acid (AA) induced ear edema model
Format: in vivo, mice
Settings: 10 μg subcutaneously 20 minutes before induction of edema
Method: A stock solution of AA was prepared by diluting AA in acetone, 4 mg/10 μL, and was stored frozen at −80° C. A final working solution, 1 mg/10 μL, in acetone was prepared. The working solution was used within one hour after preparation. […] The ears of non-anesthetized mice were measured at different time points for up to 96 hours after the TPA was administered, or up to 24 hours for the AA model. […]
I only need the number, in %, no unit after it.

Lookup: Reported Peak reduction (%) AA, substance T*G*C*CATTCGTCGTTCTCGTC*G*T*T (phosphorothioate linkages, as printed in the source, key not given here) [IDX9024, oligonucleotide; * = phosphorothioate modification] : ____
Found: −14.4

Lookup: Reported Peak reduction (%) AA, substance T*C*C*CAAGATCGTCC*A*G*G (phosphorothioate linkages, as printed in the source, key not given here) [IDX9076, oligonucleotide; * = phosphorothioate modification] : ____
Found: −20.1

Lookup: Reported Peak reduction (%) AA, substance T*G*C*CATTCGTCGATTTCGTC*G*A*T (TGCCATTCGTCGATTTCGTCGAT; DNA, linkages s3 o16 s3 (s phosphorothioate, o phosphodiester), methylation of C not given here) [IDX9025, oligonucleotide; * = phosphorothioate modification] : ____
Found: −14.9

// data source = patent US8410068B2
